Would you kindly list pIC50 for each of these compounds?
- measurementTarget: RBP4-TTR interaction (Homo sapiens (Human))
- measurementDescription: TR-FRET (HTRF) assay for retinol-induced RBP4-TTR interaction
- experimentalParameters: in the presence of 1 μM retinol; read-out: HTRF assay for antagonists of RBP4-TTR interaction: IC50
Structures can show the parent of a compound that is named as a salt.
One number for each entry, as −log10 of the molar value.

Here is how some compounds turned out for pIC50.
INSERT INTO measurements (compound, propertyname, endpointresult) VALUES
  ('N#Cc1ccc2nnc(C(=O)N3CCC(c4cccc(F)c4Cl)CC3)n2c1', 'pIC50', 7.56),
  ('CS(=O)(=O)N1CCc2[nH]nc(C(=O)N3CCC(c4cc(C(F)(F)F)cc(C(F)(F)F)c4)CC3)c2C1', 'pIC50', 6.41),
  ('O=C(c1cccnc1)N1Cc2[nH]nc(C(=O)N3CCC(c4ccc(F)c(F)c4C(F)(F)F)CC3)c2C1', 'pIC50', 7.66),
  ('CC(=O)N1CCc2c(C(=O)N3CCC(c4cccc(F)c4Cl)CC3)n[nH]c2C1', 'pIC50', 7.62);

// below: pIC50 requested for another compound
[ask] State the measured pIC50 (RBP4-TTR interaction (Homo sapiens (Human))) of O=C(c1n[nH]c2c1CNC2)N1CCC(c2ccc(F)c(F)c2C(F)(F)F)CC1 [Compound 38, Hydrochloride]
[reply] 6.70
